tested on: JB6 P+ cells; assay: SRB cytotoxicity assay; type: cell-based, mouse; conditions: Toxic = no 10-fold difference between IΔ2*PSD from soft agar and SRB assays
assay.metric: Toxicity label

Cc1ccc(Cl)c(OCC(O)CNC(C)(C)C)c1 (centres unmarked); Toxic
CC(C)(Cc1c[nH]c2ccccc12)NCC(O)COc1ccccc1C#N (centres unmarked); Toxic
COCCc1ccc(OCC(O)CNC(C)C)cc1 (centres unmarked); Toxic
CCCC(=O)Nc1ccc(OCC(O)CNC(C)C)c(C(C)=O)c1 (centres unmarked); Toxic
CC(C)NCC(O)c1ccc(O)c(O)c1 (centres unmarked); Toxic
CC(C)NCC(O)COc1cccc2[nH]c3ccccc3c12 (centres unmarked); Toxic
CC(C)(C)NCC(O)COc1cccc2[nH]c(=O)[nH]c12 (centres unmarked); Toxic

Lab note: next compound to report on.
Asked: Would you please give the reported Toxicity label of Cc1ccc(OCC(O)C(C)NC(C)C)c2c1CCC2 (centres unmarked) with JB6 P+ cells?
Given back: Toxic

###

Kindly state SRB Assay Log IΔ2*PSD for each of the entries shown.
test system: JB6 P+ cells; assay: SRB cytotoxicity assay; assay type: cell-based, mouse; conditions: 72 hr; NT = no toxicity at any concentration tested
Give bare numbers, in log [M].

Some molecules with known SRB Assay Log IΔ2*PSD results, for comparison:
CC(C)(C)NCC(O)COc1cccc2[nH]c(=O)[nH]c12 (stereo not shown); -4.46
Cc1ccc(Cl)c(OCC(O)CNC(C)(C)C)c1 (stereo not shown); -4.80

I would be grateful if you could provide SRB Assay Log IΔ2*PSD for each of the following entries.
1. Cc1ccc(OCC(O)C(C)NC(C)C)c2c1CCC2 (stereo not shown)
2. CC(C)(C)NC[C@H](O)COc1nsnc1N1CCOCC1
3. CC(C)NCC(O)COc1cccc2ccccc12 (stereo not shown)

Given back:
1. -3.59
2. -4.22
3. -4.20

###

system: JB6 P+ cells; test: SRB cytotoxicity assay; format: cell-based, mouse; details: 72 hr; NT = no toxicity at any concentration tested
assay.metric: SRB Assay Log IΔ2*PSD (log [M])
Numbers only, in log [M].

CC(C)(Cc1c[nH]c2ccccc12)NCC(O)COc1ccccc1C#N (centres unmarked) [Bucindolol]; -4.84
Cl.O=C1c2ccccc2CCC1CNCCc1ccc(O)cc1 (centres unmarked) [HEAT HCl]; -5.99
OC(CNCC(O)C1CCc2cc(F)ccc2O1)C1CCc2cc(F)ccc2O1 (centres unmarked) [Nebivolol]; -4.65
COCCc1ccc(OCC(O)CNC(C)C)cc1 (centres unmarked) [Metoprolol]; -4.52

Asked: Hello, please tell me recorded SRB Assay Log IΔ2*PSD for this one: CC(C)NCC(O)c1ccc2ccccc2c1 (centres unmarked) [Pronethalol]
Given back: -4.86

Cited source for all entries: paper PMC6527222
